- EXPERIMENTAL_TARGET: ATP-dependent translocase ABCB1 (Homo sapiens) (UniProt P08183)
- Sequence (P08183 whole entry, looked up): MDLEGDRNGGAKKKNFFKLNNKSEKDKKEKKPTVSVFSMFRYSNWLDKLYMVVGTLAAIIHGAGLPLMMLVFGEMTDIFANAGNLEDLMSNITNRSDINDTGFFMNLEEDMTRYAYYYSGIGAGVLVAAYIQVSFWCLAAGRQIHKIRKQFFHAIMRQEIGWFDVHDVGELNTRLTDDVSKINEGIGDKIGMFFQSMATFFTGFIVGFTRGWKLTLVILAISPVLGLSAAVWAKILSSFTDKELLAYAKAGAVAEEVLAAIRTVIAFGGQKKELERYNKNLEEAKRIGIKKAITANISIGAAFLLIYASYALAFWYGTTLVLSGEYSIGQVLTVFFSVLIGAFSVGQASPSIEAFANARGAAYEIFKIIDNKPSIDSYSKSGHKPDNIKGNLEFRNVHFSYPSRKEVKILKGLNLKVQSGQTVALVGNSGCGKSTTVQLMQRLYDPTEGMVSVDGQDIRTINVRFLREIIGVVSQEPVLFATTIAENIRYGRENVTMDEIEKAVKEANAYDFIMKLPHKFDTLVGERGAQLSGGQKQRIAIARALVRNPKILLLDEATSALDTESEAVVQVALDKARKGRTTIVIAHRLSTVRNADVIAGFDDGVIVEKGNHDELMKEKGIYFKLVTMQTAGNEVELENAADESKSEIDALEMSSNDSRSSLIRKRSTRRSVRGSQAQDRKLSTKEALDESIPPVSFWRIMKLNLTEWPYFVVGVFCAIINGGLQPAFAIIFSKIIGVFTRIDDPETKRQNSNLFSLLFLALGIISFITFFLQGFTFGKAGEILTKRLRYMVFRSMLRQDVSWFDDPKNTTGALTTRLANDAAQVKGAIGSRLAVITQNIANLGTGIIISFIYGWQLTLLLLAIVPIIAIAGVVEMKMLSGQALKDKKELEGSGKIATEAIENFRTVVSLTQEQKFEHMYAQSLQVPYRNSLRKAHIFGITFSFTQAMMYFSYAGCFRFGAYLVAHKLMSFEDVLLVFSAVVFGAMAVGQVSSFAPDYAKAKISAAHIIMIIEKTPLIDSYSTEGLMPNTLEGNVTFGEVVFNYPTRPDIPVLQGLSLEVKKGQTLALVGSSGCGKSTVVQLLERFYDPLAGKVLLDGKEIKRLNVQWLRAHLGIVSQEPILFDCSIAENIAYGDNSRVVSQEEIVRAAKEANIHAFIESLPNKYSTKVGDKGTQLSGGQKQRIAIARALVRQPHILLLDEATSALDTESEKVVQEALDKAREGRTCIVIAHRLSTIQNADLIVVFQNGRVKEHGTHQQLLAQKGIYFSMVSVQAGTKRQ
- ASSAY_NAME: blockers of ABCB1-mediated dye efflux – cell-based, multiplex, flow cytometry, ABCG2 counter-screen, primary screen (AID 1326);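 note: 0% = vehicle and 100% = reference inhibitor; higher value means more JC-1 retained so stronger ABCB1 efflux block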
- TEST_PARAMETERS: CCRF-Adr cells, JC-1 efflux, at 6.6 µM, stronger effect = higher value
Among all 190,000 compounds or so, about 130 (0.068%) were called active. This excerpt belongs to a sample that is enriched for actives.
Everything with inhibition lower than 20% is criterion not met; everything else, including exactly 20%, is criterion met.

Examples with answers:
COMPOUND | LABEL
Cc1ccc(OCC(O)CN2CCN(CC(O)COc3ccc(C)cc3Cl)CC2)c(Cl)c1 (stereo not given) | criterion met
Cc1ccccc1OCC(O)CN1CCN(c2ccccn2)CC1 (stereo not given) | criterion not met
COC(=O)c1ccc(CSc2nncn2N)cc1 | criterion not met

Textbook exercise: given the entry CCC1SC(CC)C(=O)N(CC(=O)NC2CCCCC2)C1=O (stereo not given) , state whether its inhibition is greater than or equal to 20%.
criterion not met

Is it the case that CC(C)(C)OC(=O)N1CCC(NC(=O)c2[nH]cnc2C(=O)N[C@@H](Cc2ccccc2)C(=O)OCc2ccccc2)CC1 has inhibition reaching or exceeding 20%?
criterion not met

====

- EXPERIMENTAL_TARGET: ATP-dependent translocase ABCB1 (Homo sapiens)
- ASSAY_NAME: blockers of ABCB1-mediated dye efflux – cell-based, multiplex, flow cytometry, ABCG2 counter-screen, primary screen (AID 1326);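 note: 0% = vehicle and 100% = reference inhibitor; higher value means more JC-1 retained so stronger ABCB1 efflux block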
- TEST_PARAMETERS: CCRF-Adr cells, JC-1 efflux, at 6.6 µM, stronger effect = higher value
Hit rate of the full screen: of about 190,000 compounds, about 130 (0.068%) were called active. For the sample, actives were picked, then their nearest neighbours and some compounds at random.
MEASUREMENT_KIND: inhibition

MOLECULE_SMILES | MEASUREMENT_KIND | TEST_VALUE
Cc1nn(CCOc2ccc(Br)cc2)c(C)c1[N+](=O)[O-] | inhibition | 1.06% (inactive)

Endpoint output: inhibition of COc1ccc(CNC(=O)COC(=O)/C=C/c2ccc(S(=O)(=O)N3CCOCC3)cc2)cc1 . Value?
-0.38% (inactive)

Recorded inhibition for COc1cc(NC(=S)NCc2ccc(S(N)(=O)=O)cc2)cc(OC)c1 , please?
-0.49% (inactive)

====

- EXPERIMENTAL_TARGET: ATP-dependent translocase ABCB1 (Homo sapiens) (UniProt P08183)
- ASSAY_NAME: blockers of ABCB1-mediated dye efflux – cell-based, multiplex, flow cytometry, ABCG2 counter-screen, primary screen (AID 1326);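 note: 0% = vehicle and 100% = reference inhibitor; higher value means more JC-1 retained so stronger ABCB1 efflux block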
- TEST_PARAMETERS: CCRF-Adr cells, JC-1 efflux, at 6.6 µM, stronger effect = higher value
Screen size: about 190,000 compounds; about 130 (0.068%) were called active. What follows is part of a selection rich in actives, with near analogues and random picks from the rest.
MEASUREMENT_KIND: inhibition (%)
// units = %; emit number, no label

Example compounds with recorded inhibition:
MOLECULE_SMILES | MEASUREMENT_KIND | TEST_VALUE
Cc1ccc2nc(-c3cccnc3)c(NC3CCCC3)n2c1 | inhibition | 1.9
C=CCc1cccc2cc(C(=O)NC3CCCC3)c(=O)oc12 | inhibition | 1.75

Let's switch to this compound now.
Report inhibition for CN(CC(=O)Nc1ccccc1F)CC(=O)Nc1ccccc1Br tested on ATP-dependent translocase ABCB1 (Homo sapiens) (UniProt P08183).
-0.22
